Reported pKi for target or system memapsin 2 (Homo sapiens), by entry.
pKi: −log10 of the molar value.

Previously resolved entries follow.
smiles_str=CSC[C@H](NC(=O)OCc1nc(C)oc1C)C(=O)N[C@H](CC(C)C)[C@@H](O)C[C@@H](C)C(=O)N[C@@H](C(=O)OCc1ccccc1)C(C)C metric_name=pKi test_value="< 6.00"
smiles_str=CSC[C@H](NC(=O)CCn1nc(C)cc1C)C(=O)N[C@H](CC(C)C)[C@@H](O)C[C@@H](C)C(=O)N[C@@H](C(=O)NCC(C)C)C(C)C metric_name=pKi test_value="6.00 to 7.00"

Turning now to a further compound:
Enquiry: State the recorded pKi for this entry: CSC[C@H](NC(=O)OCc1nc(C)cs1)C(=O)N[C@H](Cc1ccccc1)[C@@H](O)C[C@@H](C)C(=O)N[C@@H](C(=O)NCC(C)C)C(C)C
Return: > 7.00

---

Ki by entry:
# tested_on: UniProt:P07339
# assay_summary: Inhibition of cathepsin D activity (substrate peptide […], MALDI-TOF)
# Assay type: biochemical
# setup_conditions: pH 4.1, 37 degrees C., substrate NH3-[…]-CO2, MALDI-TOF; read-out: Cath D Ki

molecule=Cc1csc(COC(=O)N[C@@H](CSC2CCCC2)C(=O)N[C@H](CC(C)C)[C@@H](O)C[C@@H](C)C(=O)N[C@@H](C(=O)NCC(C)C)C(C)C)n1 test_value="< 0.1 µM"

Enquiry: Fill blank: measured Ki of the molecule CSC[C@H](NC(=O)OCc1nc(C)cs1)C(=O)N[C@H](CC(C)C)[C@@H](O)C[C@@H](C)C(=O)N[C@H](CN(C)C)C(=O)NC(C)C is ____.
Return: > 1 µM

Enquiry: # lookup: Ki of CSC[C@H](NC(=O)OCc1nc(C)cs1)C(=O)N[C@H](CC(C)C)[C@@H](O)C[C@@H](C)C(=O)N[C@@H](c1ncc[nH]1)C(C)C
Return: 0.1 to 1 µM

Enquiry: Which measured Ki value corresponds to CCC(CC)S(=O)(=O)C[C@H](NC(=O)OCc1nc(C)cs1)C(=O)N[C@H](CC(C)C)[C@@H](O)C[C@@H](C)C(=O)N[C@@H](C(=O)NCC(C)C)C(C)C ?
Return: 0.1 to 1 µM

Enquiry: Given the molecule CCc1nc(COC(=O)N[C@@H](CSC)C(=O)N[C@H](CC(C)C)[C@@H](O)C[C@@H](C)C(=O)N[C@@H](C(=O)NCC(C)C)C(C)C)c(C)s1 , what is its reported Ki?
Return: < 0.1 µM

Enquiry: Can you look up the measured Ki of CSC[C@H](NC(=O)[C@@H](C)Cc1nc(C)oc1C)C(=O)N[C@@H](CC(C)C)[C@@H](O)C[C@@H](C)C(=O)N[C@H](C(=O)NCC(C)C)C(C)C for me?
Return: < 0.1 µM

Enquiry: Form field: reported Ki of Cc1cc(C)n(COC(=O)N[C@@H](C[S+](C)[O-])C(=O)N[C@@H](CC(C)C)[C@@H](O)C[C@@H](C)C(=O)N[C@H](C(=O)NCC(C)C)C(C)C)n1 (some centres unmarked)
Return: 0.1 to 1 µM

Enquiry: Consider the molecule shown here: Cc1nc(COC(=O)N[C@@H](CS(=O)(=O)C(C)C)C(=O)N[C@H](CC(C)C)[C@@H](O)C[C@@H](C)C(=O)N[C@@H](C(=O)NCC(C)C)C(C)C)c(C)o1 What is its recorded Ki?
Return: 0.1 to 1 µM

---

pKi: −log10 of the molar value.
Please consider the recorded pKi for memapsin 2 (Homo sapiens) in what follows.

Reference set, count: 8
compound=Cc1csc(COC(=O)N[C@@H](CS(C)(=O)=O)C(=O)N[C@@H](CC(C)C)[C@@H](O)C[C@@H](C)C(=O)N[C@H]2CCNC2=O)n1 metric_name=pKi test_value="< 6.00"
compound="CSC[C@H](NC(=O)[C@@H](C)Cc1nc(C)cs1)C(=O)N[C@H](CC(C)C)[C@@H](O)C[C@@H](C)C(=O)N[C@@H](C(=O)NCC(C)C)C(C)C [Structure 65]" metric_name=pKi test_value="> 7.00"
compound=COCCOCSC[C@H](NC(=O)OCc1nc(C)cs1)C(=O)N[C@H](CC(C)C)[C@@H](O)C[C@@H](C)C(=O)N[C@@H](C(=O)NCC(C)C)C(C)C metric_name=pKi test_value="> 7.00"
compound=CSC[C@H](NC(=O)OCc1nc(C)cs1)C(=O)N[C@H](CC(C)C)[C@@H](O)C[C@@H](C)C(=O)N[C@H](CC(C)C)C(=O)NC(C)C metric_name=pKi test_value="> 7.00"
compound=CSC[C@H](NC(=O)OCc1nc(C)cs1)C(=O)N[C@H](CC(C)C)[C@@H](O)C[C@@H](C)C(=O)N[C@@H](c1ncc[nH]1)C(C)C metric_name=pKi test_value="< 6.00"
compound=C=CCSC[C@H](NC(=O)CCn1nc(C)cc1C)C(=O)N[C@@H](CC(C)C)[C@@H](O)C[C@@H](C)C(=O)N[C@H](C(=O)NCC(C)C)C(C)C metric_name=pKi test_value="> 7.00"
compound=Cc1nc(COC(=O)N[C@@H](CS(C)(=O)=O)C(=O)N[C@H](Cc2ccccc2)[C@@H](O)C[C@@H](C)C(=O)N[C@@H](C(=O)NCC(C)C)C(C)C)c(C)o1 metric_name=pKi test_value="> 7.00"
compound=Cc1csc(COC(=O)N[C@@H](CSC(C)C)C(=O)N[C@H](CC(C)C)[C@@H](O)C[C@@H](C)C(=O)N[C@@H](C(=O)NCC(C)C)C(C)C)n1 metric_name=pKi test_value="> 7.00"

Enquiry: Query: pKi; subject: CC[C@@H](Cn1nc(C)cc1C)C(=O)N[C@@H](CS(C)(=O)=O)C(=O)N[C@@H](CC(C)C)[C@@H](O)C[C@@H](C)C(=O)N[C@@H](C(=O)NCC(C)C)C(C)C
Return: > 7.00

Enquiry: Consider the compound CSC[C@H](NC(=O)OCc1nc(C)oc1C)C(=O)N[C@@H](CC(C)C)[C@@H](O)C[C@@H](C)C(=O)N[C@H](C(=O)Nc1nccs1)C(C)C and give its measured pKi.
Return: 6.00 to 7.00

Enquiry: Which pKi value is on record for Cc1nc(COC(=O)N[C@@H](CS(C)(=O)=O)C(=O)N[C@H](CC(C)C)[C@@H](O)C[C@@H](C)C(=O)N[C@@H](C(=O)NCC(C)C)C(C)C)c(C)s1 ?
Return: > 7.00

---

As shown below, each of these compounds has a reported Ki value.
# tested_on: Cathepsin D (Homo sapiens, UniProt P07339)
# Sequence (P07339 65-412, species assumed): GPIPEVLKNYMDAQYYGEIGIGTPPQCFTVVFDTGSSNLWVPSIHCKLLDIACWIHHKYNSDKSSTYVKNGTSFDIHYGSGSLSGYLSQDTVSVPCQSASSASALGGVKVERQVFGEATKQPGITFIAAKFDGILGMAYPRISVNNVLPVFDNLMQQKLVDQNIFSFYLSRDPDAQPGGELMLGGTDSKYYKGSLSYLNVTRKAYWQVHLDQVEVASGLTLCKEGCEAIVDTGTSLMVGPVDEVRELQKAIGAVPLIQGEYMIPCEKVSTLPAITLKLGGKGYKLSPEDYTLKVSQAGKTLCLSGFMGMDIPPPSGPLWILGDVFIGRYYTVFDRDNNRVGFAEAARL
# assay_summary: Inhibition of cathepsin D activity (substrate peptide […], MALDI-TOF)
# Type: biochemical
# setup_conditions: pH 4.1, 37 degrees C., substrate NH3-[…]-CO2, MALDI-TOF; read-out: Cath D Ki

Enquiry: Short answer please: Ki, Cathepsin D (Homo sapiens, UniProt P07339), entry Cc1nc(COC(=O)N[C@@H](CSC(C)C)C(=O)N[C@H](CC(C)C)[C@@H](O)C[C@@H](C)C(=O)N[C@@H](C(=O)NCC(C)C)C(C)C)c(C)o1 [Structure 60]
Return: < 100 nM

Enquiry: Observed Ki on Cathepsin D (Homo sapiens, UniProt P07339) for CSC[C@H](NC(=O)OCc1nc(C)sc1C)C(=O)N[C@H](CC(C)C)[C@@H](O)C[C@@H](C)C(=O)N[C@@H](C(=O)NCC(C)C)C(C)C [Structure 53] , please.
Return: < 100 nM

Enquiry: Under Cathepsin D (Homo sapiens, UniProt P07339): Ki value of Cc1nc(COC(=O)N[C@@H](CS(C)(=O)=O)C(=O)N[C@H](CC(C)C)[C@@H](O)C[C@@H](C)C(=O)N[C@@H](C(=O)NCC(C)C)C(C)C)co1 [Structure 28] ?
Return: 100 to 1000 nM

Enquiry: Please state recorded Ki (tested on Cathepsin D (Homo sapiens, UniProt P07339)) of Cc1coc(COC(=O)N[C@@H](CS(C)(=O)=O)C(=O)N[C@@H](CC(C)C)[C@@H](O)C[C@@H](C)C(=O)N[C@H](C(=O)NCC(C)C)C(C)C)n1 [Structure 95]
Return: 100 to 1000 nM

Enquiry: Form entry - test system: Cathepsin D (Homo sapiens, UniProt P07339); read-out: Ki; compound: Cc1csc(COC(=O)N[C@@H](CS(C)(=O)=O)C(=O)N[C@H](CC(C)C)[C@@H](O)C[C@@H](C)C(=O)N[C@@H](C(=O)NCC(C)C)C2CCCCC2)n1 [Structure 33]
Return: > 1000 nM

---

Here the recorded IC50 is given for each entry.
# Test system: Aβ production
# assay_summary: Cellular Aβ IC50 determination (Aβ40 sandwich ELISA)
# Type: cell-based
# setup_conditions: Cricetulus griseus, Chinese hamster ovary cells over-expressing human APP695 with London and Swedish mutations, 24 h
# Method: The potency of compounds against memapsin 2 activity was determined in a cellular assay of Aβ production. […] Chinese hamster ovary cells that over-express human APP695 with the London and Swedish mutations were seeded in multi-well plates at 10% confluency. Compounds were dissolved in DMSO to concentrations near 1 mM, and diluted into culture media to a final concentration near 4 μM (final 0.4% DMSO). Compounds were diluted serially and applied to cells in multi-well plates 48 h after seeding. […]

# count of solved cases: 10
molecule=Cc1nc(COC(=O)N[C@@H](CS(C)(=O)=O)C(=O)N[C@H](CC(C)C)[C@@H](O)C[C@@H](C)C(=O)N[C@@H](C(=O)NCC(C)C)C(C)C)c(C)s1 test_value="< 6 µM"
molecule=CCc1nc(COC(=O)N[C@@H](CS(C)(=O)=O)C(=O)N[C@H](CC(C)C)[C@@H](O)C[C@@H](C)C(=O)N[C@@H](C(=O)NCC(C)C)C(C)C)c(C)o1 test_value="< 6 µM"
molecule=Cc1csc(COC(=O)N[C@@H](CS(C)(=O)=O)C(=O)N[C@H](CC(C)C)[C@@H](O)C[C@@H](C)C(=O)N[C@@H](C(=O)NCC(C)C)C(C)C)n1 test_value="6 to 100 µM"
molecule=Cc1csc(COC(=O)N[C@@H](CS(C)(=O)=O)C(=O)N[C@H](CC(C)C)[C@@H](O)C[C@@H](C)C(=O)N[C@@H](C(=O)NCC(C)C)c2ccccc2)n1 test_value="6 to 100 µM"
molecule=CC[C@@H](Cc1nc(C)cs1)C(=O)N[C@@H](CSC)C(=O)N[C@H](CC(C)C)[C@@H](O)C[C@@H](C)C(=O)N[C@@H](C(=O)NCC(C)C)C(C)C test_value="< 6 µM"
molecule=CSC[C@H](NC(=O)OCc1nc(C)cs1)C(=O)N[C@H](CC(C)C)[C@@H](O)C[C@@H](C)C(=O)N[C@@H](C(N)=O)C(C)C test_value="< 6 µM"
molecule=CSC[C@H](NC(=O)CCc1nc(C)cs1)C(=O)N[C@H](CC(C)C)[C@@H](O)C[C@@H](C)C(=O)N[C@@H](C(=O)NCC(C)C)C(C)C test_value="> 100 µM"
molecule=CSC[C@H](NC(=O)OCc1nc(C)oc1C)C(=O)N[C@H](Cc1ccccc1)[C@@H](O)C[C@@H](C)C(=O)N[C@@H](C(=O)NCC(C)C)C(C)C test_value="6 to 100 µM"
molecule=Cc1csc(COC(=O)N[C@@H](CS(C)(=O)=O)C(=O)N[C@H](CC(C)C)[C@@H](O)C[C@@H](C)C(=O)N[C@H](CC(C)C)C(=O)NC(C)C)n1 test_value="< 6 µM"
molecule=CSC[C@H](NC(=O)OCc1nc(C)cs1)C(=O)N[C@H](CC(C)C)[C@@H](O)C[C@@H](C)C(=O)N[C@H](CC(C)C)C(=O)NC(C)C test_value="6 to 100 µM"

Enquiry: I am curious: what IC50 value has been reported for Cc1nc(COC(=O)N[C@@H](CS(C)(=O)=O)C(=O)N[C@H](CC(C)C)[C@@H](O)C[C@@H](C)C(=O)N[C@@H](C(=O)NN(C)C)C(C)C)c(C)o1 ?
Return: < 6 µM

Enquiry: Would you kindly share the measured IC50 for C=CCS(=O)(=O)C[C@H](NC(=O)CCn1nc(C)cc1C)C(=O)N[C@H](CC(C)C)[C@@H](O)C[C@@H](C)C(=O)N[C@@H](C(=O)NCC(C)C)C(C)C ?
Return: > 100 µM

Enquiry: Given the molecule Cc1nc(COC(=O)N[C@@H](CS(=O)(=O)C(C)C)C(=O)N[C@H](CC(C)C)[C@@H](O)C[C@@H](C)C(=O)N[C@@H](C(=O)NCC(C)C)C(C)C)c(C)o1 , what is its reported IC50?
Return: 6 to 100 µM

Enquiry: What value of IC50 has been recorded for this entry: Cc1csc(COC(=O)N[C@@H](CSCC(C)C)C(=O)N[C@H](CC(C)C)[C@@H](O)C[C@@H](C)C(=O)N[C@@H](C(=O)NCC(C)C)C(C)C)n1
Return: < 6 µM

Enquiry: Fill in the blank: the reported IC50 of Cc1cc(C)n(CCC(=O)N[C@@H](CS(C)(=O)=O)C(=O)N[C@@H](CC(C)C)[C@@H](O)C[C@@H](C)C(=O)N[C@@H](C(=O)NCC(C)C)C(C)C)n1 is ____.
Return: > 100 µM
